Target entity: CAII from bovine erythrocytes (Bos taurus)
Construct: purchased Sigma-Aldrich C2522; host or cells: bovine erythrocytes
Sequence (P00921 whole entry): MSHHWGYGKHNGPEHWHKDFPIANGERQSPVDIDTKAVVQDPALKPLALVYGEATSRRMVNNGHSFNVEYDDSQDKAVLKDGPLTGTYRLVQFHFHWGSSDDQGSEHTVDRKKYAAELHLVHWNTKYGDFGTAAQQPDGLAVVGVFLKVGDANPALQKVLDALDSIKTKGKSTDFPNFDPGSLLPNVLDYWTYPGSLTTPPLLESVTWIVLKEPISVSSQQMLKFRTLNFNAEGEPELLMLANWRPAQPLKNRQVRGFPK
Measurement notes: ITC of aromatic sulfonamides with carbonic anhydrase II in light and heavy water
Assay type: binding
Test conditions: ITC, D2O buffer, 25 °C; read-out: Kd (D2O)
pKd: −log10 of the molar value.
Value type: pKd

Below, 2 compounds whose answers are already recorded.
>  <Compound>
NS(=O)(=O)c1cc2c(s1)CCCC2 [THBT-2-SA]

>  <Meas value>
7.91

$$$$
>  <Compound>
NS(=O)(=O)c1nc2ccccc2[nH]1 [BDA-2-SA, 1H-1,3-benzodiazole-2-sulfonamide]

>  <Meas value>
6.65

$$$$

[1] NS(=O)(=O)c1cccs1 [TP-2-SA, thiophene-2-sulfonamide]
[2] NS(=O)(=O)c1cc2ccccc2o1 [BF-2-SA, 1-benzofuran-2-sulfonamide]
[3] NS(=O)(=O)c1nccs1 [TA-2-SA, thiazole-2-sulfonamide]
stdin: Highest pKd first, then in falling order down to the smallest. Order the labels as requested and give them as your answer.
stdout: 2, 3, 1
